Biological target: T1, CARD11, Q9BXL7
T1 sequence (Q9BXL7 662-765, limits assumed, looked up): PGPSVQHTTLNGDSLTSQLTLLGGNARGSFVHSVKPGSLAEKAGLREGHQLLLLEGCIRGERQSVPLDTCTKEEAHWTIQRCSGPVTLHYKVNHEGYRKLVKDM
Assay: holdup assay
Set-up: key: below the threshold = too weak to quantify, mostly under pKd 3.1 to 4
Conditions: plain residues with an end cap or a label only (N-terminal biotin on a linker: ahx)

{"Binder": "QDEKVKESYV [ABCA1, O95477]", "pKd": "below the threshold"}
{"Binder": "TESNLQTSSC [CGN, Q9P2M7]", "pKd": "below the threshold"}
{"Binder": "HTHSYIETHV [CNKSR2, Q8WXI2]", "pKd": "below the threshold"}
{"Binder": "QNTDDVQTSF [ACE2, Q9BYF1]", "pKd": "below the threshold"}
{"Binder": "EKQAKGDTEF [CACYBP, Q9HB71]", "pKd": "below the threshold"}
{"Binder": "TEAKLTETNA [MYO18A, Q92614]", "pKd": "below the threshold"}
{"Binder": "APSRKLNTEI [TIAM1, Q13009]", "pKd": "below the threshold"}
{"Binder": "TQKFRASTAL [FRMPD1, Q5SYB0]", "pKd": "below the threshold"}
{"Binder": "QPRTWLQSPV [RTKN, Q9BST9]", "pKd": "below the threshold"}
